Target: UniProtKB P45983
Sequence (P45983 whole entry, looked up): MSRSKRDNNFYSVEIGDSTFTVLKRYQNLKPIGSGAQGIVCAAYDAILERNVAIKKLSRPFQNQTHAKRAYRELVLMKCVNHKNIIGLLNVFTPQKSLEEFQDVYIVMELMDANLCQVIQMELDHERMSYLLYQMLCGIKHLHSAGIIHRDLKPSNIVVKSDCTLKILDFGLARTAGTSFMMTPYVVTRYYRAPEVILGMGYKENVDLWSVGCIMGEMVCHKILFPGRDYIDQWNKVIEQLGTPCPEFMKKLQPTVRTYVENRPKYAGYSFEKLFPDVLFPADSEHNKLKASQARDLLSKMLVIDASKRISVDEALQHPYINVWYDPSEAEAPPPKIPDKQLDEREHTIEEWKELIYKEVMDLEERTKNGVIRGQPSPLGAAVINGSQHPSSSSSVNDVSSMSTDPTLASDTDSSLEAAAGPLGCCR
Experiment: radiometric filter-binding kinase assay, Kinase HotSpot
Conditions: compound 0.5 µM; ATP 10 µM
residual activity for assorted compounds
Provide only the numeric value, understood in %.

Illustrative cases are given below, each with its answer.
smiles structure | residual activity / %
COc1cc2c(N3CCN(C(=O)Nc4ccc(OC(C)C)cc4)CC3)ncnc2cc1OCCCN1CCCCC1 | 105
O=C(c1ccccc1)c1ccc(N2CCOCC2)cc1O | 99.5
O=C(O)c1ccc2c3c1cccc3c(=O)n1c3ccccc3nc21 | 98
Nc1ncnc2c1cnn2-c1ccccc1 | 87.1

c1ccc(-c2cnc(Nc3ccc(OCCN4CCCC4)cc3)s2)cc1 yielded residual activity of 92.4

Cn1cc(/C=C2\C(=O)Nc3ccc(S(N)(=O)=O)cc32)c2ccccc21 yielded residual activity of 108

###

Biological target: FGFR4 (human)
Test: radiometric filter-binding kinase assay, Kinase HotSpot
Conditions: compound 0.5 µM; ATP 10 µM
residual activity for assorted compounds
Provide only the numeric value, understood in %.

N/C(=N\N=C/c1ccc(-c2cccc([N+](=O)[O-])c2)o1)N[N+](=O)[O-] yielded residual activity of 106

O=C(O)c1ccc2c3c1cccc3c(=O)n1c3ccccc3nc21 yielded residual activity of 88.6

N#Cc1c(NC(=O)c2cccc3ccccc23)sc2c1CCCC2 yielded residual activity of 109

COc1cc2c(cc1OC)-c1[nH]nc(Nc3cccc(F)c3)c1C2 yielded residual activity of 91.6

O=c1c(-c2ccc(F)cc2)c(-c2ccncc2)[nH]n1-c1ccc(Cl)cc1 yielded residual activity of 92.4

N#C/C(=C1/Nc2ccccc2S1)c1ccnc(NCCc2cccnc2)n1 yielded residual activity of 101

O=S(=O)(NCCNC/C=C/c1ccc(Br)cc1)c1cccc2cnccc12 yielded residual activity of 85.3

###

Target: NTRK1 (human)
Assay: radiometric filter-binding kinase assay, Kinase HotSpot
Conditions: compound 0.5 µM; ATP 10 µM
measured property: residual activity (%)
Provide only the numeric value, understood in %.

Illustrative cases are given below, each with its answer.
smiles structure | residual activity [%]
COc1cc2ncnc(Nc3ccc(O)c(Br)c3)c2cc1OC | 96.4
Cn1cc(/C=C2\C(=O)Nc3ccc(S(N)(=O)=O)cc32)c2ccccc21 | 6.15

Assay NTRK1 (human), sample O=C1NC(=O)c2cc(Nc3ccc(F)cc3)c(Nc3ccc(F)cc3)cc21 , residual activity read: 93.6

Assay NTRK1 (human), sample COc1cc2c(N3CCN(C(=O)Nc4ccc(OC(C)C)cc4)CC3)ncnc2cc1OCCCN1CCCCC1 , residual activity read: 48.1

###

Target: DMPK (human)
Assay: radiometric filter-binding kinase assay, Kinase HotSpot
Settings: compound 0.5 µM; ATP 10 µM
measured property: residual activity (%)
Provide only the numeric value, understood in %.

smiles structure | residual activity, %
CCCCc1c(-c2ccc(O)cc2)[nH]c2nccnc12 | 91.8
COc1cc2c(cc1OC)-c1[nH]nc(Nc3cccc(F)c3)c1C2 | 109
O=C(O)c1ccc2c3c1cccc3c(=O)n1c3ccccc3nc21 | 98.9

N#CCCc1ccc2c(c1)-c1[nH]c3ccc([N+](=O)[O-])cc3c1CC(=O)N2 yielded residual activity of 89.8

Nc1ncnc2c1cnn2-c1ccccc1 yielded residual activity of 106

CCc1nc(-c2ccc(OC)cc2)[nH]c1-c1ccncc1 yielded residual activity of 102
